Cited source for all entries: patent US20060166992A1

target: PDE 10A (Homo sapiens, UniProt Q9Y233); construct: is expressed recombinantly in full length in Sf9 insect cells; assay: Inhibition of PDE 10A (scintillation proximity assay, [3H]cAMP substrate); details: recombinant full-length PDE 10A expressed in Sf9 insect cells; 60 min at 20° C.
Sequence (Q9Y233 1-779 isoform Q9Y233-1): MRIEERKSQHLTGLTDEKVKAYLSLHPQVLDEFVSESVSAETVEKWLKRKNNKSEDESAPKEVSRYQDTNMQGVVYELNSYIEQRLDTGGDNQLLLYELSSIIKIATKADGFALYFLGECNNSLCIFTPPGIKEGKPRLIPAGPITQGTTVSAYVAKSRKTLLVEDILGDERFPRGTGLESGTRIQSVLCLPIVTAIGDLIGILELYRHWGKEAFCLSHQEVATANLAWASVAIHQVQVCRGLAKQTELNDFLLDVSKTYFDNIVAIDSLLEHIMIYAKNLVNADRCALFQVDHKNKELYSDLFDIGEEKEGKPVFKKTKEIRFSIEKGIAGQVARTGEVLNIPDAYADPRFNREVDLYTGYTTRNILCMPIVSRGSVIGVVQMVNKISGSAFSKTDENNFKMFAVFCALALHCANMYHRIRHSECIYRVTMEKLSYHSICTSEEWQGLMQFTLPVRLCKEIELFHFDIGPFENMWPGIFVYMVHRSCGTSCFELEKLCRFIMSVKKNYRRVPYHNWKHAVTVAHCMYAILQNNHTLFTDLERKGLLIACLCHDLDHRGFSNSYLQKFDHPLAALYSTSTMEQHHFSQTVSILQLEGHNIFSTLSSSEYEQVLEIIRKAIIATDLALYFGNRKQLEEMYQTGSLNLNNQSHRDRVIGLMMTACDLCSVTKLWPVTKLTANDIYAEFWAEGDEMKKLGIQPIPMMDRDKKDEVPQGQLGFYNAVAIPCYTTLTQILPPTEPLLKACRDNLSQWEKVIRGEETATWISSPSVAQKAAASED
READOUT TYPE: IC50 (nM)
Your answer should be a plain number; it is taken to be in nM.

Some entries whose results are on file:
{"columns": ["COMPOUND", "IC50 / nM"],
 "data": [
  ["COc1cc(Oc2nc(-c3cccnc3)nn3c(C(C)C)nc(C)c23)cc(OC)c1OC [Example 10]", 8],
  ["COc1cc(Nc2nc(-c3ccncc3)nn3c(C)nc(C)c23)cc(OC)c1OC [Example 14]", 150],
  ["COc1cc(Nc2nc(-c3cccnc3)nn3c(C)nc(C)c23)cc(OC)c1OC [Example 16]", 30],
  ["COc1cc(Nc2nc(-c3cnc(C)s3)nn3c(C)nc(C)c23)cc(OC)c1OC [Example 12]", 93]
]}

Note: attention shifts to another entry.
State the recorded IC50 for this entry: COc1cc(Oc2nc(-c3ccc(C)nc3)nn3c(C)nc(C)c23)cc(OC)c1OC [Example 9]
38
